- STUDY_SYSTEM: Genome polyprotein (West Nile virus)
- ASSAY_EXPLANATION: West Nile NS2B-NS3 proteinase blockers – biochemical, confirmation, dose response (AID 653)
- RECORDED_CONDITIONS: WNV NS2B-NS3 protease enzymatic assay, fluorescence
Calls of active or inactive are those of the source. How the calls were made is not given here.
Your reply should match one of these outcome classes. active, inactive

Use the examples below as a reference point.
COc1cccc(NC(=O)CSc2nc3n[nH]c(C)c3c(=N)n2-c2cccc(OC)c2)c1
inactive
COC(=O)CSC1=C(C#N)C(c2ccc(C)cc2)C2=C(CCCC2=O)N1 (stereo not given)
inactive

Challenge: Could you kindly confirm the outcome this assay logged for COc1ccc(OC)c(C2C(C(N)=O)=C(C)Nc3nc(-c4cccc(Cl)c4)nn32)c1 (stereo not given) ?
Response given: inactive

Challenge: Could you kindly confirm the outcome this assay logged for C/C(CC1(O)C(=O)N(Cc2ccccc2)c2ccccc21)=N\O (stereo not given) ?
Response given: inactive

Challenge: Could you kindly confirm the outcome this assay logged for COc1ccc(N=CC2=C(O)CCCC2=O)cc1 ?
Response given: active
